Target: T1, cynomolgus monkey ANGPTL4 N-terminal region (amino acid residues 1-130 of SEQ ID NO:490) with a C-terminal … (cynomolgus monkey (Macaca fascicularis), UniProt Q9BY76 26-130 (human entry))
T1 construct: also called MfANGPTL4(1-130)-His
T1 chain: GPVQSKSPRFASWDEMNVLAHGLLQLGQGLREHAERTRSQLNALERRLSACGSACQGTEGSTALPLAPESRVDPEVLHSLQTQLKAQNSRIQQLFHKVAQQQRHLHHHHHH
Experiment: SPR (Biacore), 25° C., pH 7.2, antigen amino-coupled 1,028 RU
ASSAY METRIC: kon (M⁻¹ s⁻¹)
Give just the numeric value; M⁻¹ s⁻¹ need not be written.

BINDER	ASSAY METRIC	REPORTED
H1H268P (antibody, V domains shown, also called entire H1H268 mAb; Full mAb) VH: QVQLQESGAGLLKPSETLSLTCTVYGGSFSIHHWTWIRHPPGKGLEWIGEINHRGSTNYNPSLKSRVTISIDTSKNQFSLKLSAVTAADTAVYYCARGLRFLDWLSSYFDYWGQGTLVTVSS VL: DIQMTQSPSSLSASVGDRVTITCRASQGISDYLAWYQQKPGKVPNLLIYAASALQSGVPSRFSGSGSGTDFTLTISSLQPEDVATYYCQNYNTAPLTFGGGTKVEIK	kon	392000
H1H284P Fab fragment (Fab, V domains shown, Fab made by papain digestion of H1H284P (IgG1); also called H1H284 Fab) VH: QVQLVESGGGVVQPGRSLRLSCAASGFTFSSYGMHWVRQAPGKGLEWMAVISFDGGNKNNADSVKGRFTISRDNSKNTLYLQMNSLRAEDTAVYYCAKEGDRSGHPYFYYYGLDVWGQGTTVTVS VL: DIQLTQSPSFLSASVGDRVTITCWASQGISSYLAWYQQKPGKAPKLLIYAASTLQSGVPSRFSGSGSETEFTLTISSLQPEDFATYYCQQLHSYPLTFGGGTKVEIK	kon	310000
H1H268P Fab fragment (Fab, V domains shown, Fab made by papain digestion of H1H268P (IgG1); also called H1H268 Fab) VH: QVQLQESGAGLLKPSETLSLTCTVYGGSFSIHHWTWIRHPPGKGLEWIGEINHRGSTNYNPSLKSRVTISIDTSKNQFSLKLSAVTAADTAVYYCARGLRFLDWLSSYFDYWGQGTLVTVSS VL: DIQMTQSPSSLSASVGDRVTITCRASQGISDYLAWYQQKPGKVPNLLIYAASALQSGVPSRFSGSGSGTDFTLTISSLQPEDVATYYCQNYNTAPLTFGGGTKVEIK	kon	267000

Please find the next binder below.
[ask] Dear colleague, I am looking for the recorded kon of the following binder: H1H284P (antibody, V domains shown, also called entire H1H284 mAb; Full mAb) VH: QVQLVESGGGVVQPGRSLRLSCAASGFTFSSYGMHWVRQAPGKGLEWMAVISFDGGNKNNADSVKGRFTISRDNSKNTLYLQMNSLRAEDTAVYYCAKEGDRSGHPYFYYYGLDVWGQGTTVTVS VL: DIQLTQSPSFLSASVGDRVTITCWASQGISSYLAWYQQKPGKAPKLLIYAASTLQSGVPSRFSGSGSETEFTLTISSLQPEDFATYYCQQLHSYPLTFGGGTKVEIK
[reply] 467000
